Attribution: patent US20040072865A1

Listed next: entries and their corresponding melting point.
measured-parameter: melting point

* CCc1ccc(C2CCN(CCCCNC(=O)c3ccc(NC(=O)c4ccc(Cl)cc4)cc3)CC2)c(OC(C)=O)c1 | 192 to 194 °C
* CC(=O)Oc1cc(C)ccc1C1CCN(CCCCNC(=O)c2ccc(-c3ccc(C#N)cc3)cc2)CC1 | 128 to 130 °C
* CCOP(=O)(OCC)Oc1cc(CC)ccc1C1CCN(CCCCNC(=O)c2ccc(NC(=O)c3ccc(Cl)cc3)cc2)CC1 | 158 to 160 °C
